- Target Entity: human PAI-1 (Homo sapiens, UniProt P05121)
- Sequence (P05121 24-402): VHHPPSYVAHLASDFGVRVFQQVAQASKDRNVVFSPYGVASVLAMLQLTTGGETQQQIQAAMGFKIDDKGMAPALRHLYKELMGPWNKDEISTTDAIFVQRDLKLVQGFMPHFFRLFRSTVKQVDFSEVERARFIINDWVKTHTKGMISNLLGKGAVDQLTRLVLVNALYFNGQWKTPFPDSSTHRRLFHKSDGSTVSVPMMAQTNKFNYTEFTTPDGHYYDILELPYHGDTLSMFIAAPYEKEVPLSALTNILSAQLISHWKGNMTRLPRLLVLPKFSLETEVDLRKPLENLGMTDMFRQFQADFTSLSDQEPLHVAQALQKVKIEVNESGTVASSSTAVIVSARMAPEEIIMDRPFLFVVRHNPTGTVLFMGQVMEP
- Protocol Summary: Measurement of PAI-1 inhibitory activity of compound group 1 (t-PA, Spectrozyme t-PA chromogenic substrate)
- Test Parameters: read-out: PAI-1 activity %
Where a name gives a salt, the structure may show the parent alone.
Label not met if activity at 10 µM falls below 2%; label met in every other case.

## Task Say whether O=C(Nc1ccc(Cl)cc1C(=O)O)c1cccc(C23CC4CC(CC(C4)C2)C3)c1 shows activity at 10 µM of 2% or more.
## Result not met

## Task Can you handle O=C(Nc1ccc(Cl)cc1C(=O)O)c1ccc(OCc2ccc3ccccc3n2)cc1 next?
## Result not met

## Task Can you handle O=C(Nc1ccc(Cl)cc1C(=O)O)c1ccc(C2=CCOCC2)cc1 next?
## Result met

## Task Can you handle O=C(CCCOc1ccc(C23CC4CC(CC(C4)C2)C3)cc1)Nc1ccc(Cl)cc1C(=O)O next?
## Result not met

## Task Can you handle O=C(CCc1cccc(-c2ccoc2)c1)Nc1ccc(Cl)cc1C(=O)O next?
## Result met

## Task Can you handle O=C(O)c1cc(Cl)ccc1NC(=O)C1(c2cccc(-c3ccoc3)c2)CC1 next?
## Result met

## Task Can you handle O=C(COc1cccc(-c2ccccc2)c1)Nc1ccc(Cl)cc1C(=O)O next?
## Result not met

## Task Can you handle O=C(O)c1cc(Cl)ccc1NC(=O)c1cc2cc(-c3ccccc3)ccc2n1CCCO next?
## Result not met

## Task Can you handle O=C(COC(c1ccccc1)c1ccccc1)Nc1ccc(Cl)cc1C(=O)O next?
## Result met

## Task Can you handle O=C(/C=C(/Cl)C1CCCCC1)Nc1ccc(Cl)cc1C(=O)O next?
## Result met

## Task Can you handle O=C(CC(c1ccccc1)c1ccccc1)Nc1ccc(Cl)cc1C(=O)O next?
## Result met

## Task Can you handle O=C(Nc1ccc(-c2ccccc2)cc1)Nc1ccc(Cl)cc1C(=O)O next?
## Result met

## Task Can you handle Cc1ccc(-c2cccc(C(=O)Nc3ccc(Cl)cc3C(=O)O)c2)cc1 next?
## Result not met

## Task Can you handle O=C(Nc1ccc(Cl)cc1C(=O)O)c1ccc(-n2cccc2)cc1 [Salt of Known compound (7), hydrochloride, reference compound] next?
## Result met

## Task Can you handle Cn1c(C(=O)Nc2ccc(Cl)cc2C(=O)O)cc2cc(-c3ccccc3)ccc21 next?
## Result not met

## Task Can you handle Cc1ccc(-c2ccc(F)cc2)cc1NCC(=O)Nc1ccc(Cl)cc1C(=O)O next?
## Result met

## Task Can you handle O=C(CN1CCN(C(c2ccccc2)c2ccccc2)CC1)Nc1ccc(Cl)cc1C(=O)O next?
## Result met

====

- Target Entity: human PAI-1 (Homo sapiens)
- Protocol Summary: Measurement of PAI-1 inhibitory activity of compound group 1 (t-PA, Spectrozyme t-PA chromogenic substrate)
- Test Parameters: read-out: PAI-1 activity %
Classification field. Basis: activity at 2.5 µM. Definitions: small value (below 50%), mid value (50% to below 90%), large value (90% or more)

## Task Which class does O=C(Nc1ccc(Cl)cc1C(=O)O)c1cccc(C2CCCCC2)c1 [Example 80] fall in?
## Result small value

## Task Can you handle O=C(Cc1ccc(-c2ccccc2)cc1)Nc1ccc(Cl)cc1C(=O)O [Example 70] next?
## Result large value

## Task Can you handle CC(C)(C)c1ccc(C(=O)Nc2ccc(Cl)cc2C(=O)O)cc1 [Known compound (1), reference compound] next?
## Result large value

## Task Can you handle Cc1sc(NC(=O)c2cccc(-c3ccoc3)c2)c(C(=O)O)c1-c1ccccc1 [Example 5] next?
## Result small value

## Task Can you handle Cc1ccc(-c2ccc(OCC(=O)Nc3ccc(Cl)cc3C(=O)O)cc2)cc1 [Example 49] next?
## Result mid value

## Task Can you handle O=C(CCOc1ccc(C23CC4CC(CC(C4)C2)C3)cc1)Nc1ccc(Cl)cc1C(=O)O [Example 59] next?
## Result mid value

## Task Can you handle Cn1c(C(=O)Nc2ccc(Cl)cc2C(=O)O)cc2cc(Br)ccc21 [Example 23] next?
## Result large value

## Task Can you handle O=C(Nc1ccc(Cl)cc1C(=O)[O-])c1cccc(-c2cnc3ccccc3c2)c1.[Na+] [Example 63] next?
## Result small value

## Task Can you handle O=C(Nc1ccc(Cl)cc1C(=O)[O-])c1cccc(-c2cccc3cccnc23)c1.[Na+] [Example 68] next?
## Result small value

## Task Can you handle Cc1cc(C)cc(-c2ccc(OCC(=O)Nc3ccc(Cl)cc3C(=O)O)cc2)c1 [Example 50] next?
## Result mid value

## Task Can you handle O=C(Cn1ccc2cc(-c3ccccc3)ccc21)Nc1ccc(Cl)cc1C(=O)O [Example 51] next?
## Result small value

## Task Can you handle O=C(COc1ccc(-c2ccco2)cc1)Nc1ccc(Cl)cc1C(=O)O [Example 54] next?
## Result large value

## Task Can you handle O=C(COc1ccc(C23CC4CC(CC(C4)C2)C3)cc1)Nc1ccc(Cl)cc1C(=O)O [Example 21] next?
## Result small value

## Task Can you handle O=C(Nc1ccc(Cl)cc1C(=O)O)c1ccc(-c2ccccc2)cc1 [Known compound (2), reference compound] next?
## Result mid value

## Task Can you handle COc1ccccc1-c1cccc(C(=O)Nc2ccc(Cl)cc2C(=O)O)c1 [Example 33] next?
## Result large value

## Task Can you handle O=C(COc1ccccc1C1CCCCC1)Nc1ccc(Cl)cc1C(=O)O [Example 17] next?
## Result mid value

====

- Target Entity: human PAI-1 (Homo sapiens, UniProt P05121)
- Protocol Summary: Measurement of PAI-1 inhibitory activity of compound group 1 (t-PA, S-2288 chromogenic substrate)
- Test Parameters: read-out: PAI-1 activity %
Observed Property: activity at 20 µM (%)
Your answer is read as %, so omit the unit and give the number.

## Task Can you share its activity at 20 µM? I mean this molecule: O=C(Nc1ccc(Cl)cc1C(=O)O)c1ccc(-c2ccccc2)cc1 [Known compound (2), reference compound]
## Result 41.8

## Task Can you handle O=C(O)c1cc(Cl)ccc1NC(=O)c1ccccc1-c1ccccc1 [Example 6] next?
## Result 51.4

## Task Can you handle O=C([O-])c1cc(Cl)ccc1NC(=O)C1CCCN(C(=O)c2cccc(-c3ccoc3)c2)C1.[Na+] (centres unmarked) [Example 11] next?
## Result 68.2

## Task Can you handle O=C(O)c1cc(Cl)ccc1NC(=O)[C@@H]1CCCN1C(=O)c1cccc(-c2ccoc2)c1 [Example 10] next?
## Result 73

## Task Can you handle O=C(O)c1cc(Cl)ccc1NC(=O)[C@@H]1CCCN1C(=O)Cc1cccc(-c2ccoc2)c1 [Example 9] next?
## Result 98.1

## Task Can you handle Cn1cc(C(=O)C(=O)Nc2ccc(Cl)cc2C(=O)O)c2cc(-c3ccoc3)ccc21 [Example 14] next?
## Result 22.1

## Task Can you handle O=C(Cc1cccc(-c2ccoc2)c1)Nc1ccc(Cl)cc1C(=O)O [Example 3] next?
## Result 63.7

## Task Can you handle Cc1sc(NC(=O)c2cccc(-c3ccoc3)c2)c(C(=O)O)c1-c1ccccc1 [Example 5] next?
## Result 14.7

====

- Target Entity: human PAI-1 (Homo sapiens, UniProt P05121)
- Protocol Summary: Measurement of PAI-1 inhibitory activity of compound group 1 (t-PA, Spectrozyme t-PA chromogenic substrate)
- Test Parameters: read-out: PAI-1 activity %
Label n if activity at 10 µM falls below 1%; label y in every other case.

## Task Say whether O=C(Nc1ccc(Cl)cc1C(=O)O)c1cccc(C#CC2CCCCC2)c1 [Example 87] shows activity at 10 µM of 1% or more.
## Result y

## Task Can you handle O=C(Nc1ccc(C23CC4CC(CC(C4)C2)C3)cc1)C(=O)Nc1ccc(Cl)cc1C(=O)O [Example 106] next?
## Result y

## Task Can you handle O=C(COc1cccc(C23CC4CC(CC(C4)C2)C3)c1)Nc1ccc(Cl)cc1C(=O)O [Example 30] next?
## Result y

## Task Can you handle O=C(/C=C/c1ccc(-c2ccccc2)cc1)Nc1ccc(Cl)cc1C(=O)O [Example 78] next?
## Result n

## Task Can you handle O=C(Nc1ccc(Cl)cc1C(=O)O)c1cccc(C2=CCCCC2)c1 [Example 79] next?
## Result y

====

- Target Entity: human PAI-1 (Homo sapiens)
- Protocol Summary: Measurement of PAI-1 inhibitory activity of compound group 1 (t-PA, Spectrozyme t-PA chromogenic substrate)
- Test Parameters: read-out: PAI-1 activity %
Observed Property: activity at 2.5 µM (%)
Your answer is read as %, so omit the unit and give the number.

## Task Can you share its activity at 2.5 µM? I mean this molecule: O=C(/C=C(/Cl)C1CCCCC1)Nc1ccc(Cl)cc1C(=O)O [Example 91]
## Result 96.9

## Task Can you handle O=C(O)c1cc(Cl)ccc1NC(=O)C1CCCC2(CCCCC2)C1 (stereo not drawn) [Example 85] next?
## Result 97.5

## Task Can you handle COc1ccccc1-c1cccc(OCC(=O)Nc2ccc(Cl)cc2C(=O)O)c1 [Example 61] next?
## Result 92.4

## Task Can you handle Cc1sc(NC(=O)c2ccc(C3CCCCC3)cc2)c(C(=O)O)c1-c1ccccc1 [Example 74] next?
## Result 8.6

## Task Can you handle Cn1c(C(=O)Nc2ccc(Cl)cc2C(=O)O)cc2cc(-c3ccccc3)ccc21 [Example 48] next?
## Result 2.5

## Task Can you handle CC(C)(Oc1cccc(-c2ccoc2)c1)C(=O)Nc1ccc(Cl)cc1C(=O)O [Example 44] next?
## Result 97.8

## Task Can you handle O=C(COc1cccc(-c2ccoc2)c1)Nc1ccc(Br)cc1C(=O)O [Example 15] next?
## Result 87.3

## Task Can you handle C#Cc1ccc(NC(=O)c2ccc(C3CCCCC3)cc2)c(C(=O)O)c1 [Example 95] next?
## Result 80.5

## Task Can you handle Cc1ccc(-c2cccc(C(=O)Nc3ccc(Cl)cc3C(=O)O)c2)cc1 [Example 32] next?
## Result 94.4

The values you see were collected from patent US10092537B2.
